assay_comment: Pharmacokinetics of compounds in rats (oral)
Assay type: in vivo, SD rats
protocol_conditions: male, SD, rat, plasma, po, 100 mg/kg, male SD rats, 100 mg/kg, read-out: Cmax
Below, each of the compounds is paired with its reported Cmax value.
Give just the number in ng/mL; leave the unit off.

• Oc1cc(-c2ncc3c(N4CC5CCC(C4)N5)nc(OCC45CCCN4[C@@H](c4ccc(Cl)c(Cl)c4)CC5)nc3c2F)c2c(F)c(F)ccc2c1 (mixture of isomers) [Example 220] = 38
• C#Cc1c(F)ccc2cc(O)cc(-c3ncc4c(N5CC6CCC(C5)N6)nc(OCC56CCCN5C(c5ccc7c(c5)C5CCC7O5)CC6)nc4c3F)c12 (stereo not drawn) [Example 192] = 96

Continue with the next compound.
Req: What measured Cmax goes with Nc1cc(F)c(C(F)(F)F)c(-c2ncc3c(N4CC5CCC(C4)N5)nc(OCC45CCCN4C(c4ccc6c(c4)OC(F)(F)O6)CC5)nc3c2F)c1 (stereo not drawn) [Example 237] ?
Resp: 362

====

Tested on: KRas G12D-mediated ERK phosphorylation
assay_comment: Inhibition of KRas G12D-mediated ERK phosphorylation in AGS cells
Format: cell-based
protocol_conditions: Homo sapiens, AGS, read-out: AGS-pERK IC50
Binarize IC50 at 10 nM; below is 1, at or above is -1.

• Cc1cc(N)cc(-c2ncc3c(N4CC5CCC(C4)N5)nc(OCC45CCCN4[C@@H](c4ccc6c(c4)OC(F)(F)O6)CC5)nc3c2F)c1C(F)(F)F (mixture of isomers) [Example 235] = -1

Req: Problem: For the molecule Oc1cc(-c2ncc3c(N4CC5CCC(C4)N5)nc(OCC45CCCN4[C@@H](c4ccc(F)cc4)CC5)nc3c2F)c2c(F)c(F)ccc2c1 (single isomer, unassigned) [Example 193] , is IC50 under 10 nM?
Resp: 1

Req: Dear reviewer, please state whether Oc1cc(-c2ncc3c(N4CC5CCC(C4)N5)nc(OCC45CCCN4[C@@H](c4ccc(C(F)(F)F)c(C(F)(F)F)c4)CC5)nc3c2F)c2c(F)c(F)ccc2c1 (mixture of isomers) [Example 219] has IC50 strictly beneath 10 nM.
Resp: 1

Req: # strict comparison: is reported IC50 < 10 nM? input = COc1ccc(C2CCC3(COc4nc(N5CC6CCC(C5)N6)c5cnc(-c6cc(O)cc7ccc(F)c(F)c67)c(F)c5n4)CCCN23)cc1OC (centres unmarked) [Example 113]
Resp: -1

Req: is_below(IC50, 10 nM) for Nc1cc(Cl)c(C(F)(F)F)c(-c2ncc3c(N4CC5CCC(C4)N5)nc(OCC45CCCN4C(c4ccc(F)c(F)c4)CC5)nc3c2F)c1 (centres unmarked) [Example 244] ?
Resp: 1

====

assay_comment: Pharmacokinetics of compounds in rats (oral)
Assay type: in vivo, SD rats
protocol_conditions: male, SD, rat, plasma, po, 100 mg/kg, male SD rats, 100 mg/kg, read-out: Cmax
readout: Cmax (ng/mL)
Write the answer as a number in ng/mL, unit excluded.

Please review the following examples before continuing.
* Oc1cc(-c2ncc3c(N4CC5CCC(C4)N5)nc(OCC45CCCN4C(c4ccc(-c6ccc(F)cc6)cc4)CC5)nc3c2F)c2c(F)c(F)ccc2c1 (stereo not drawn) | 66
* Oc1cc(-c2ncc3c(N4CC5CCC(C4)N5)nc(OCC45CCCN4C(c4ccc(Cl)c(C(F)(F)F)c4)CC5)nc3c2F)c2c(F)c(F)ccc2c1 (stereo not drawn) | 52

Please turn your attention to the following entry.
Req: Item under review: CC1(C)OC(C)(C)c2cc([C@H]3CCC4(COc5nc(N6CC7CCC(C6)N7)c6cnc(-c7cc(O)cc8ccc(F)c(F)c78)c(F)c6n5)CCCN34)ccc21 (single isomer, unassigned) . Reported Cmax?
Resp: 141

====

In this section, each of the compounds is paired with its reported AUC.
assay_comment: Pharmacokinetics of compounds in rats (oral)
Type: in vivo, SD rats
protocol_conditions: male SD rats, 100 mg/kg
Just the number please, in ng·h/mL, no unit attached.

Req: I am curious: what AUC value has been reported for Oc1cc(-c2ncc3c(N4C[C@H]5CC[C@@H](C4)N5)nc(OCC45CCCN4C(c4ccc6c(c4)COC6)CC5)nc3c2F)c2ccccc2c1 (stereo partly shown) [Example 43] ?
Resp: 537

====

Let's look at some molecules and their measured Cmax.
assay_comment: Pharmacokinetics of compounds in rats (oral)
Type: in vivo, SD rats
protocol_conditions: male SD rats, 100 mg/kg
Kindly provide the numeric value in ng/mL only, without the unit symbol.

• Oc1cc(-c2ncc3c(N4C[C@H]5CC[C@@H](C4)N5)nc(OCC45CCCN4C(c4ccc6c(c4)OC(F)(F)O6)CC5)nc3c2F)c2c(F)c(F)ccc2c1 (stereo partly shown) [Example 140] = 113
• C#Cc1c(F)ccc2cc(O)cc(-c3ncc4c(N5CC6CCC(C5)N6)nc(OC[C@@]56CCCN5C[C@H](F)C6)nc4c3F)c12 [MRTX1133, reference compound] = 26
• Oc1cc(-c2ncc3c(N4CC5CCC(C4)N5)nc(OCC45CCCN4[C@@H](c4cc(F)c(F)c(F)c4)CC5)nc3c2F)c2c(F)c(F)ccc2c1 (single isomer, unassigned) [Example 223] = 260

Req: Requested read-out: Cmax. Entry: Oc1cc(-c2ncc3c(N4C[C@H]5CC[C@@H](C4)N5)nc(OCC45CCCN4C(c4ccc6c(c4)OC(F)(F)O6)CC5)nc3c2F)c2c(F)c(F)ccc2c1 (stereo partly shown) [Example 142]
Resp: 96

Req: Entry Oc1cc(-c2ncc3c(N4CC5CCC(C4)N5)nc(OCC45CCCN4[C@@H](c4cc(F)c(F)c(F)c4)CC5)nc3c2F)c2c(F)c(F)ccc2c1 (mixture of isomers) [Example 222] : reported Cmax = ?
Resp: 82

Req: Quick one: Cmax for CC1(C)OC(C)(C)c2cc([C@H]3CCC4(COc5nc(N6CC7CCC(C6)N7)c6cnc(-c7cc(O)cc8ccc(F)c(F)c78)c(F)c6n5)CCCN34)ccc21 (mixture of isomers) ?
Resp: 97

====

assay_comment: Pharmacokinetics of compounds in rats (oral)
Assay type: in vivo, SD rats
protocol_conditions: male, SD, rat, plasma, po, 100 mg/kg, male SD rats, 100 mg/kg, read-out: AUC
Entries annotated with measured AUC
Number only, in ng·h/mL; omit the unit.

Example entries begin here.
• Oc1cc(-c2ncc3c(N4CC5CCC(C4)N5)nc(OCC45CCCN4C(c4ccc6c(c4)COCC6)CC5)nc3c2F)c2c(F)c(F)ccc2c1 (stereo not drawn) [Example 187] = 567
• CC1(C)OCc2cc(C3CCC4(COc5nc(N6C[C@H]7CC[C@@H](C6)N7)c6cnc(-c7cc(O)cc8ccc(F)c(F)c78)c(F)c6n5)CCCN34)ccc21 (stereo partly drawn) [Example 146] = 483
• Oc1cc(-c2ncc3c(N4CC5CCC(C4)N5)nc(OCC45CCCN4[C@@H](c4ccc(C(F)(F)F)c(F)c4)CC5)nc3c2F)c2c(F)c(F)ccc2c1 (mixture of isomers) [Example 225] = 380
• Oc1cc(-c2ncc3c(N4CC5CCC(C4)N5)nc(OCC45CCCN4C(c4ccc(F)cc4)CC5)nc3c2F)c2c(F)c(F)ccc2c1 (stereo not drawn) [Example 108] = 2090
• Nc1ccc(OC(F)(F)F)c(-c2ncc3c(N4CC5CCC(C4)N5)nc(OC[C@]45CCCN4C(c4ccc6c(c4)OC(F)(F)O6)CC5)nc3c2F)c1 (stereo partly drawn) [Example 163] = 2750

Req: What AUC value was documented for this compound, C#Cc1c(F)ccc2cc(O)cc(-c3ncc4c(N5CC6CCC(C5)N6)nc(OCC56CCCN5C(c5ccc(F)cc5)CC6)nc4c3F)c12 (stereo not drawn) [Example 188] ?
Resp: 862

====

System: KRas G12D-mediated ERK phosphorylation
assay_comment: Inhibition of KRas G12D-mediated ERK phosphorylation in AGS cells
Type: cell-based
protocol_conditions: Homo sapiens, AGS, read-out: AGS-pERK IC50
readout: pIC50
Scale explanation: pIC50 corresponds to minus log10 of a concentration expressed in moles per litre.

Known pIC50 results, listed for orientation:
* Oc1cc(-c2ncc3c(N4CC5CCC(C4)N5)nc(OCC45CCCN4C(c4ccc6c(c4)OCO6)CC5)nc3c2F)c2c(F)c(F)ccc2c1 (centres unmarked) | 7.85
* Oc1cc(-c2ncc3c(N4CC5CCC(C4)N5)nc(OCC45CCCN4[C@@H](c4cc(F)c(F)c(F)c4)CC5)nc3c2F)c2c(F)c(F)ccc2c1 (mixture of isomers) | 8.96
* C#Cc1c(F)ccc2cc(O)cc(-c3ncc4c(N5CC6CCC(C5)N6)nc(OCC56CCCN5[C@@H](c5ccc(C(F)(F)F)cc5)CC6)nc4c3F)c12 (single isomer, unassigned) | 9.11
* Oc1cc(-c2ncc3c(N4CC5CCC(C4)N5)nc(OCC45CCCN4[C@@H](c4ccc(F)c(F)c4)CC5)nc3c2F)c2c(F)c(F)ccc2c1 (mixture of isomers) | 9.15

Req: Requested read-out: pIC50. Entry: Oc1cc(-c2ncc3c(N4CC5CCC(C4)N5)nc(OCC45CCCN4C(c4ccc6c(c4)COCC6)CC5)nc3c2F)c2c(F)c(F)ccc2c1 (centres unmarked)
Resp: 7.89
